# procedure_summary: in vivo
# measurement_context: female, BALB/C, mouse, iv, 2 mg/kg
experimental_endpoint: Vd (L/kg)
# number only, unit L/kg dropped from output

[ask] Note Vd for the molecule shown: O=C(Nc1cc(F)c(F)cc1C(=O)Nc1ccccc1C(=O)O)c1ccccc1F
[reply] 20

----------
# procedure_summary: in vivo
# measurement_context: female, BALB/C, mouse, iv, 4 mg/kg
experimental_endpoint: Cmax
Value and unit, in that order.

[ask] Note Cmax for the compound shown: O=C(Nc1cc(F)c(F)cc1C(=O)Nc1ccccc1C(=O)O)c1ccccc1F
[reply] 20 µM

----------
# System: rRVFVΔNSs::Katushka
# procedure_summary: microbe, parasite or virus in culture
# Type: cell-based, Rift Valley fever virus
# measurement_context: read-out: EC50, inhibition of fluorescent cell foci
experimental_endpoint: EC50 (µM)
# number only, unit µM dropped from output

[ask] For rRVFVΔNSs::Katushka, give the measured EC50 of the entry O=C(Nc1cc(Cl)ccc1C(=O)Nc1ccccc1C(=O)O)c1ccccc1F [35f]
[reply] 4.6
